Task for the reader: assign each of the following variants its reported protein stability index.
B1: PDZK1 (parent)
chain: RETASLKLLPHQPRIVEMKKGSNG

# Variants of: B1
# measurementDescription: protein stability index of a GFP-peptide fusion (GPS, HEK-293T) (PSI 1-6); higher = more stable;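 further: lentivirally expressed fusions sorted by FACS into six bins by GFP to DsRed ratio, PSI derived from sequencing read proportions per bin multiplied by bin number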
# testConditions: c terminus: a fixed tail appended
Please respond with just the number, no unit label.

### Prompt Can you share its protein stability index? I mean this variant: V16W
### Response 3.57

### Prompt Can you share its protein stability index? I mean this variant: G21C
### Response 2.58

### Prompt Can you share its protein stability index? I mean this variant: K19E
### Response 3.94

### Prompt Can you share its protein stability index? I mean this variant: V16Q
### Response 4.51

### Prompt Can you share its protein stability index? I mean this variant: K7R
### Response 4.05

### Prompt Can you share its protein stability index? I mean this variant: K7T
### Response 4.66

### Prompt Can you share its protein stability index? I mean this variant: K7V
### Response 3.95

### Prompt Can you share its protein stability index? I mean this variant: L8Q
### Response 4.16

### Prompt Can you share its protein stability index? I mean this variant: P10H
### Response 2.54

### Prompt Can you share its protein stability index? I mean this variant: S22N
### Response 4.09

### Prompt Can you share its protein stability index? I mean this variant: S5E
### Response 3.61

### Prompt Can you share its protein stability index? I mean this variant: V16P
### Response 4.63

### Prompt Can you share its protein stability index? I mean this variant: E17R
### Response 4.02

### Prompt Can you share its protein stability index? I mean this variant: H11E
### Response 3.08

### Prompt Can you share its protein stability index? I mean this variant: L6G
### Response 3.69

### Prompt Can you share its protein stability index? I mean this variant: I15K
### Response 4.75
